- Assayed System: bovine cardiac myofibrils (full-length cardiac myosin ATPase in the native sarcomere) (Bos taurus (Bovine))
- Sequence (Q9BE39 whole entry): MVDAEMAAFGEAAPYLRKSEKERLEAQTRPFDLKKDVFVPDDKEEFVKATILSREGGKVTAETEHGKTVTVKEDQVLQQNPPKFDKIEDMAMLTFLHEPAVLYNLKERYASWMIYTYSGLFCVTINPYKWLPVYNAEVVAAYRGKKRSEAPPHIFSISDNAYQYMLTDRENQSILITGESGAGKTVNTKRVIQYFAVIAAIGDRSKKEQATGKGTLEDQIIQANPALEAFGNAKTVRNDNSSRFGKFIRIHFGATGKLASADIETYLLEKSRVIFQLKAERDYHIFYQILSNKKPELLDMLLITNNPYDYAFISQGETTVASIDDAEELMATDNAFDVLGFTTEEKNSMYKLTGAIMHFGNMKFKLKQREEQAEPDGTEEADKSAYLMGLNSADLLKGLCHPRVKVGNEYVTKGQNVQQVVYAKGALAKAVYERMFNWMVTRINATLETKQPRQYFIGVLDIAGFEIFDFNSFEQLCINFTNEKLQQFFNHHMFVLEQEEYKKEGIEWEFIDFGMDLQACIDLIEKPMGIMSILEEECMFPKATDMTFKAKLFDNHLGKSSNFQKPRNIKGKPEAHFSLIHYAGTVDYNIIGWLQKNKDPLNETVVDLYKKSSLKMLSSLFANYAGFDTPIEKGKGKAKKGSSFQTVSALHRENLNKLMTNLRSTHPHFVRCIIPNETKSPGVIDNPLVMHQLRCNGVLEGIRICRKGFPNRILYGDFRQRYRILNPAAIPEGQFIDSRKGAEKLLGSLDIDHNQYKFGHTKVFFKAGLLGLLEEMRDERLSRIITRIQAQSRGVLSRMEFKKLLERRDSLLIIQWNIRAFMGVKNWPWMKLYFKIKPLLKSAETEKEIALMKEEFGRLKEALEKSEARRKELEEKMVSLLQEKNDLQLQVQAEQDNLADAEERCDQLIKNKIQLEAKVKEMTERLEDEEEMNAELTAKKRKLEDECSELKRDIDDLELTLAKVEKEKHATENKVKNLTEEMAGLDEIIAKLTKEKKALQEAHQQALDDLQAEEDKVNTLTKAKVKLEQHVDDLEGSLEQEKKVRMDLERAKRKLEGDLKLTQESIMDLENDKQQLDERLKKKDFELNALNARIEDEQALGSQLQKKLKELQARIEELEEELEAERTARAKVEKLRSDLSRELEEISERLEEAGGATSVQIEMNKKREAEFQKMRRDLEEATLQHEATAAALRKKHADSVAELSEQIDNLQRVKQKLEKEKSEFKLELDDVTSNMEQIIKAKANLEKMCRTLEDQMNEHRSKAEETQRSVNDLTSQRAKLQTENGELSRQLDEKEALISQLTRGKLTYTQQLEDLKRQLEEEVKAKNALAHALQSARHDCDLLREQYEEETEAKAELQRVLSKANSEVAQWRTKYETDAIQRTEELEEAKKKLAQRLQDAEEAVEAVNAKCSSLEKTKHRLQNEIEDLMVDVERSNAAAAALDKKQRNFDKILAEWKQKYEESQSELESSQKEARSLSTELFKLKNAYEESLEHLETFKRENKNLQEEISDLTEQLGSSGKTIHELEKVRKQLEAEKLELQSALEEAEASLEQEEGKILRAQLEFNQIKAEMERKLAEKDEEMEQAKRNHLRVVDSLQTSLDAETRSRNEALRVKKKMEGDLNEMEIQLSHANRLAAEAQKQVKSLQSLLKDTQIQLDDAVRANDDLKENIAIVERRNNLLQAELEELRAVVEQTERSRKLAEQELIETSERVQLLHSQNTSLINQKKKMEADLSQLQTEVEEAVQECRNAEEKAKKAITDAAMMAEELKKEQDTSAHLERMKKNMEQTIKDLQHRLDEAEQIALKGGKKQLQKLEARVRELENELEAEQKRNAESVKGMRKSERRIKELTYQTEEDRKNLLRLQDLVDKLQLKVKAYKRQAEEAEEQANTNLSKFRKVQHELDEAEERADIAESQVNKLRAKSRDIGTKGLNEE
- Sequence (P85100 whole entry partner): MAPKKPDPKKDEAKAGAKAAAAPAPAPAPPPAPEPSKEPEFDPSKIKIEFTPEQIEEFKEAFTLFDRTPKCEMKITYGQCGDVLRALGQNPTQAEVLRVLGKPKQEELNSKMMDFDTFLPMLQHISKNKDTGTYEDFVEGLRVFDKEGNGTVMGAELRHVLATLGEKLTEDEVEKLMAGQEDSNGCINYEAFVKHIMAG
- Sequence (Q3SZE5 whole entry partner): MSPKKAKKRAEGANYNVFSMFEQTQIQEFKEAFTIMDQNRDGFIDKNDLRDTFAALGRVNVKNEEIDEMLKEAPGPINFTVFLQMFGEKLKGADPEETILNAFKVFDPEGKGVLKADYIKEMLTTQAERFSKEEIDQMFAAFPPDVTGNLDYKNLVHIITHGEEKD
- Test Name: Skinned bovine cardiac myofibril ATPase assay (PK/LDH-coupled)
- Type: biochemical
- Test Conditions: Ca2+ activating to 75% of maximal rate, read-out: CDMF75 IC50
pIC50: −log10 of the molar value.
Endpoint: pIC50

(a) Cn1cc(C(=O)N[C@@H]2CCc3cc(-c4noc(C5CCC5)n4)ccc32)ccc1=O
(b) CCc1nc(-c2ccc3c(c2)CC[C@H]3NC(=O)c2cnccc2C)no1
*Q* Select the item with the higher value of pIC50 from the options a and b listed. Bench note: the answer is the label of the chosen record.
*A* a
(a: 5.15, b: 4.82)

(1) CCc1nc(-c2ccc3c(c2)CC[C@H]3NC(=O)c2coc(COC)n2)no1
(2) CCc1nc(-c2ccc3c(c2)CC[C@H]3NC(=O)OCC(F)F)no1
*Q* Higher pIC50 between 1 and 2 ? Output the label that corresponds to your choice.
*A* 2
(2: 6.05, 1: 5.08)

(A) Cc1nc(-c2ccc3c(c2)CCC3NC(=O)c2cnn3c2CCC3)no1 (stereo not drawn)
(B) CCc1nc(-c2cnc3c(c2)CCC3NC(=O)c2ccnc(C)c2)no1 (stereo not drawn)
(C) Cc1ncc(C(=O)N[C@@H]2CCc3cc(-c4noc(C5(C)CC5)n4)ccc32)o1
(D) CCc1nc(-c2ccc3c(c2)CCC[C@@H]3NC(=O)c2cnn(C)c2)no1
*Q* Place the items in sequence of falling pIC50. // rank by listing labels in the order requested
*A* C, A, B, D
(C: 5.59, A: 5.05, B: 4.62, D: 4.41)

(a) COCc1nc(-c2ccc3c(c2)CC[C@H]3NC(=O)c2cc(CO)ccn2)no1 [Compound 672]
(b) CCc1nc(-c2ccc3c(c2)CC[C@H]3NC(=O)c2cnn(C(C)C(=O)O)c2)no1 (stereo partly drawn)
(c) COCc1nc(-c2ccc3c(c2)CCC3NC(=O)c2cn(C)nc2C)no1 (stereo not drawn)
*Q* Arrange items by their pIC50 values in increasing order. Thanks in advance for listing the labels in the requested order.
*A* b, a, c

====

- Assayed System: bovine cardiac myofibrils (full-length cardiac myosin ATPase in the native sarcomere) (Bos taurus (Bovine))
- Test Name: Skinned bovine cardiac myofibril ATPase assay (PK/LDH-coupled)
- Test Conditions: Ca2+ activating to 75% of maximal rate, read-out: CDMF75 IC50
Endpoint: IC50 (µM)

Below, each entry is followed by its recorded IC50 result.
Compound	IC50, µM
CCc1nc(-c2ccc3c(c2)CC[C@H]3NC(=O)c2cc(C(C)O)ccn2)no1 (some centres unmarked) [Compound 721]	6.7
CCc1nc(-c2ccc3c(c2)OC[C@H]3NC(=O)OCCO)no1 [Compound 744]	1.3
Cc1nn(C)cc1C(=O)N[C@@H]1COc2cc(-c3noc(C(F)F)n3)ccc21 [Compound 208]	1.6

(A) CCOC(=O)C(C)c1nc(-c2ccc3c(c2)CCC3NC(=O)c2cnc(C)o2)no1 (centres unmarked) [Compound 493]
(B) [2H]C([2H])([2H])c1nc(-c2ccc3c(c2)OC[C@H]3NC(=O)c2cnn(C)c2)no1 [Compound 265]
*Q* Which value of IC50 is numerically greater: that of A or that of B ? Reply briefly: the label of your chosen item.
*A* A

(a) O=C(NC1CCc2cc(-c3noc(C(F)F)n3)ccc21)c1cnn2c1CCC2 (centres unmarked) [Compound 36]
(b) Cc1cc(C(=O)N[C@@H]2COc3cc(-c4noc(C(F)F)n4)cnc32)ccn1 [Compound 196]
(c) Cc1nccnc1C(=O)NC1CCc2cc(-c3noc(C(F)F)n3)ccc21 (centres unmarked) [Compound 38]
*Q* Form: Sort by [IC50] Order [ ascending ] Your task in answering is to list the labels in the requested order.
*A* a, c, b
